- System: SN12C renal
- assay_method_text: NCI-60 one-dose screen, 48 h (100 = growth as untreated, 0 = no growth, -100 = all killed)
- experimental_parameters: 10 µM unless noted
The panel holds about 83,000 compounds, 20% with a hit somewhere; the sample as a whole holds those more often.
Please provide measured growth for the entries that follow.
Answers are plain numbers, in %.

// known answers, use as guide
CCN1C(=O)N(CC)C2C1NN=c1s/c(=C3\C(=O)N(C4CCCC4)c4ccccc43)c(=O)n12 (centres undefined)	31.6
N#Cc1c(NC(=O)c2ccc([N+](=O)[O-])o2)[n+]([O-])c2cc(F)c(F)cc2[n+]1[O-]	108
COC1=CC(c2ccc[nH]2)=N/C1=C\c1[nH]c(C)c(C(=O)CCCCC(=O)Nc2ccccc2)c1C	73.5
CCC(c1ccc(OC)cc1)C(CC)c1ccc(O)c(CN2CCCC2)c1 (centres undefined)	23.3
COc1ccc(-c2nc3sccn3c2-c2ccnc(NCCCNS(=O)(=O)c3ccc(C)cc3)n2)cc1	36.3

Could you report growth for every entry in the following list?
1. CCN1C(=O)N[C@H]2[C@@H]3NC(=O)c4ccc(Cl)n4[C@@H]3C[C@]21O
2. c1ccc2nc(-c3ccc4ccccc4n3)ccc2c1
3. CCOP(=O)(CCN1CCN(CCCCCOc2cc3c(cc2OC)C(=O)N2CCC[C@H]2C=N3)CC1)OCC
4. COC(=O)CCCCCCN=Cc1c(O)c(O)c(C(C)C)c2cc(C)c(-c3c(C)cc4c(C(C)C)c(O)c(O)c(C=NCCCCCCC(=O)OC)c4c3O)c(O)c12

-1.6
95.9
79
22.8

----------
- Test system: HOP-92 NSCLC
- assay_method_text: NCI-60 one-dose screen, 48 h (100 = growth as untreated, 0 = no growth, -100 = all killed)
- experimental_parameters: 10 µM unless noted
Compounds without any hit were thinned out: in the full panel of roughly 83,000, 20% have a hit.
measurement_type: growth (%)
Give bare numbers, in %.

Cc1ccnc2nc(C(=O)OCC(=O)Nc3ccc(-c4ccccc4)cc3)nn12	69.7
C=C1C(=O)O[C@H]2[C@H]1CC/C(COC(=O)NCCc1cccc(OC)c1)=C\CC[C@@]1(C)O[C@@H]21	44
COC(=O)CCCCCN=Cc1c(O)c(O)c(C(C)C)c2cc(C)c(-c3c(C)cc4c(C(C)C)c(O)c(O)c(C=NCCCCCC(=O)OC)c4c3O)c(O)c12	-5.66

Could you report growth for every entry in the following list?
1. O=S(=O)(NCCNc1nccc(-c2c(-c3ccccc3)nc3sccn23)n1)c1ccc(O)cc1
2. COc1ncc(-c2ccc3ncnc(Nc4cccc(Cl)c4)c3c2)cc1N(S(C)(=O)=O)S(C)(=O)=O
3. O=C(CNC1CCCCC1)Nc1ccc(-c2nc3ccccc3s2)cc1
4. O=C(Nc1ccc(Cl)cc1)c1cc(-c2ccc(F)cc2)c2sc(=O)[nH]c2n1
5. NC(CC(N)C(=O)O)C(=O)O (stereo not given)

[61.3, 7.62, 48.8, -24.2, 115]

Could you report growth for every entry in the following list?
1. CN1C(=O)[C@H]2c3c1cccc3[C@@]13NC(=O)O[C@H]1[C@H](CCC3(C)C)C2(C)C
2. CNC(C)=O

1. 81.9
2. 103

----------
Please provide measured growth for the entries that follow.
- Test system: A549/ATCC NSCLC
- assay_method_text: NCI-60 one-dose screen, 48 h (100 = growth as untreated, 0 = no growth, -100 = all killed)
- experimental_parameters: 10 µM unless noted
This is part of a sample that, as a whole, favours compounds with a hit. Of some 83,000 tested, about 20% had one in any assay.
One number for each entry, in %.

// known answers, use as guide
C=C1C(=O)O[C@H]2[C@H](O)[C@@H](C)CCC/C(C)=C/CC[C@@]3(C)O[C@@H]3C[C@@H]12	80.7
CCOC(=O)CC(C#N)(CC(=O)OCC)C(=O)OCC	84.6
COC(=O)CCCCCCN=Cc1c(O)c(O)c(C(C)C)c2cc(C)c(-c3c(C)cc4c(C(C)C)c(O)c(O)c(C=NCCCCCCC(=O)OC)c4c3O)c(O)c12	29.7

Could you report growth for every entry in the following list?
1. Cc1cc2c(C(C)C)c(O)c(O)c(C=NCCCCCCC(=O)O)c2c(O)c1-c1c(C)cc2c(C(C)C)c(O)c(O)c(C=NCCCCCCC(=O)O)c2c1O
2. COC(=O)c1ccc(C)cc1
3. N#Cc1c(NC(=O)c2ccc([N+](=O)[O-])o2)[n+]([O-])c2cc(F)c(F)cc2[n+]1[O-]
4. CCC1=C[C@@H]2CN(C1)Cc1c([nH]c3ccccc13)[C@@](C(=O)OC)(c1cc3c(cc1OC)N(C=O)[C@H]1[C@@](O)(C(=O)OC)[C@H](OC(C)=O)[C@]4(CC)[C@@H]5C[C@@H]5CN5CC[C@]31[C@@H]54)C2
5. COc1ccc(C2CC(c3cccs3)=NN2c2ccc(S(=O)(=O)NC(=O)Nc3ccc(C)cc3)cc2)cc1 (stereo not drawn)

1. 30.7
2. 103
3. 116
4. 11
5. 102
